- studyTarget: GCN2 kinase (Homo sapiens)
- assayExplanation: GCN2 enzyme inhibition assay (Transcreener ADP2 fluorescence polarization)
- Type: biochemical
- conditionsUsed: Enzyme activity for compounds of Formula IV; Ki(app), 280 μM ATP, 25° C.
Please go through the items and note down their Ki.

The reported Ki of the compound NC(=O)c1cn2c(-c3nccc(N4CCC5(CC4)OCCO5)n3)cnc2cn1 [IV-266] was 10 to 100 nM

I'm hoping you can list Ki for every compound here, please.
1. CC1CN(c2ccnc(-c3cnc4cnc(Cl)cn34)n2)CC(c2cn[nH]c2)N1 (single isomer, unassigned) [IV-214]
2. CC1CC(CS(C)(=N)=O)C(C)N(c2ccnc(-c3cnc4cnc(C(F)F)cn34)n2)C1 (single isomer, unassigned) [IV-367]
3. CP(C)(=O)C1CC(c2cn[nH]c2)CN(c2ccnc(-c3cnc4cnc(C(F)(F)F)cn34)n2)C1 (stereo not shown) [IV-590]
4. C[C@H]1[C@@H](C(=O)O)CCCN1c1ccnc(-c2cnc3cnc(C(F)F)cn23)n1 (racemic) [IV-110]
5. FC(F)c1cn2c(-c3nccc(N4CCC(c5ccncc5)C4)n3)cnc2cn1 (stereo not shown) [IV-68]
6. CC1CN(c2ccnc(-c3cnc4cnc(Br)cn34)n2)CC(c2cn[nH]c2)N1 (single isomer, unassigned) [IV-364]
7. CS(C)(=O)=NCC(=O)N[C@H]1CCCN(c2ccnc(-c3cnc4cnc(C(F)(F)F)cn34)n2)C1 [IV-747]
8. FC(F)(F)c1cn2c(-c3nccc(N4CCCC(c5nn[nH]n5)C4)n3)cnc2cn1 (stereo not shown) [IV-331]

Resp:
< 10 nM
100 to 1000 nM
100 to 1000 nM
100 to 1000 nM
100 to 1000 nM
10 to 100 nM
> 1000 nM
100 to 1000 nM

Provide the reported Ki of each entry below, same order.
1. Cc1nc(C2CCN(c3ccnc(-c4cnc5cnc(C(F)(F)F)cn45)n3)C2)n[nH]1 (stereo not shown) [IV-641]
2. CC1CC(c2cn[nH]c2)C(C)N(c2ccnc(-c3cnc4cnc(C(F)(F)F)cn34)n2)C1 (stereo not shown) [IV-304]
3. CS(=O)(=O)NCc1cccc(-c2ccnc(-c3cnc4cnc(C(F)F)cn34)n2)c1 [IV-146]
4. O=CNC1CCCN(c2ccnc(-c3cnc4cnc(C(F)(F)F)cn34)n2)C1 (stereo not shown) [IV-332]
5. FC(F)(F)c1cn2c(-c3nccc(N4CCCC(c5c[nH]c(Cl)n5)C4)n3)cnc2cn1 (stereo not shown) [IV-409]

Resp:
["100 to 1000 nM", "< 10 nM", "100 to 1000 nM", "100 to 1000 nM", "< 10 nM"]

Batch: Ki for all items listed.
1. CC1CN(c2ccnc(-c3cnc4cnc(Cl)cn34)n2)C(C)C(c2cn[nH]c2)N1 (single isomer, unassigned) [IV-247]
2. O=C1CC(C2CCCN(c3ccnc(-c4cnc5cnc(C(F)(F)F)cn45)n3)C2)CN1 (stereo not shown) [IV-663]

Resp:
1: < 10 nM; 2: 100 to 1000 nM

* * *

Kindly state Ki for each of the entries shown.
- studyTarget: GCN2 kinase (Homo sapiens)
- assayExplanation: GCN2 enzyme inhibition assay (Transcreener ADP2 fluorescence polarization)
- Type: biochemical
- conditionsUsed: Enzyme activity for compounds of Formula IV; Ki(app), 280 μM ATP, 25° C.

Examples with answers:
Query Cc1cn2c(-c3nccc(N4CCO[C@H](CNS(C)(=O)=O)C4)n3)cnc2cn1 yields Ki of 100 to 1000 nM

The molecule CC(=O)N1CCN(c2ccnc(-c3cnc4cnc(-c5c[nH]nc5C)cn34)n2)CC1 showed Ki equal to 100 to 1000 nM

molecule CC(=O)N1CCN(c2nc(C)cc(-c3cnc4cnc(C(N)=O)cn34)n2)CC1 , Ki observed: 100 to 1000 nM

So, CC1NC(c2cn[nH]c2)C(C)N(c2ccnc(-c3cnc4cnc(C(F)(F)F)cn34)n2)C1C (centres unmarked) [IV-323] ? Its Ki was < 10 nM

Quick request: Ki for each listed item, please.
1. Brc1cn2c(-c3nccc(N4CCCC(c5c[nH]cn5)C4)n3)cnc2cn1 (centres unmarked) [IV-340]
2. C[C@H]1CCCN(c2ccnc(-c3cnc4cnc(C(F)F)cn34)n2)C1
3. NC(=O)C1CN(c2ccnc(-c3cnc4cnc(C(F)(F)F)cn34)n2)CCO1 (centres unmarked)
4. C[C@H]1CN(c2ccnc(-c3cnc4cnc(C(F)(F)F)cn34)n2)C[C@@H](CNS(C)(=O)=O)C1(F)F

Resp:
1: < 10 nM; 2: 100 to 1000 nM; 3: 100 to 1000 nM; 4: 100 to 1000 nM

* * *

Assignment: determine reported pKi for the given compounds.
- studyTarget: GCN2 kinase (Homo sapiens, UniProt Q9P2K8)
- Sequence (Q9P2K8 whole entry): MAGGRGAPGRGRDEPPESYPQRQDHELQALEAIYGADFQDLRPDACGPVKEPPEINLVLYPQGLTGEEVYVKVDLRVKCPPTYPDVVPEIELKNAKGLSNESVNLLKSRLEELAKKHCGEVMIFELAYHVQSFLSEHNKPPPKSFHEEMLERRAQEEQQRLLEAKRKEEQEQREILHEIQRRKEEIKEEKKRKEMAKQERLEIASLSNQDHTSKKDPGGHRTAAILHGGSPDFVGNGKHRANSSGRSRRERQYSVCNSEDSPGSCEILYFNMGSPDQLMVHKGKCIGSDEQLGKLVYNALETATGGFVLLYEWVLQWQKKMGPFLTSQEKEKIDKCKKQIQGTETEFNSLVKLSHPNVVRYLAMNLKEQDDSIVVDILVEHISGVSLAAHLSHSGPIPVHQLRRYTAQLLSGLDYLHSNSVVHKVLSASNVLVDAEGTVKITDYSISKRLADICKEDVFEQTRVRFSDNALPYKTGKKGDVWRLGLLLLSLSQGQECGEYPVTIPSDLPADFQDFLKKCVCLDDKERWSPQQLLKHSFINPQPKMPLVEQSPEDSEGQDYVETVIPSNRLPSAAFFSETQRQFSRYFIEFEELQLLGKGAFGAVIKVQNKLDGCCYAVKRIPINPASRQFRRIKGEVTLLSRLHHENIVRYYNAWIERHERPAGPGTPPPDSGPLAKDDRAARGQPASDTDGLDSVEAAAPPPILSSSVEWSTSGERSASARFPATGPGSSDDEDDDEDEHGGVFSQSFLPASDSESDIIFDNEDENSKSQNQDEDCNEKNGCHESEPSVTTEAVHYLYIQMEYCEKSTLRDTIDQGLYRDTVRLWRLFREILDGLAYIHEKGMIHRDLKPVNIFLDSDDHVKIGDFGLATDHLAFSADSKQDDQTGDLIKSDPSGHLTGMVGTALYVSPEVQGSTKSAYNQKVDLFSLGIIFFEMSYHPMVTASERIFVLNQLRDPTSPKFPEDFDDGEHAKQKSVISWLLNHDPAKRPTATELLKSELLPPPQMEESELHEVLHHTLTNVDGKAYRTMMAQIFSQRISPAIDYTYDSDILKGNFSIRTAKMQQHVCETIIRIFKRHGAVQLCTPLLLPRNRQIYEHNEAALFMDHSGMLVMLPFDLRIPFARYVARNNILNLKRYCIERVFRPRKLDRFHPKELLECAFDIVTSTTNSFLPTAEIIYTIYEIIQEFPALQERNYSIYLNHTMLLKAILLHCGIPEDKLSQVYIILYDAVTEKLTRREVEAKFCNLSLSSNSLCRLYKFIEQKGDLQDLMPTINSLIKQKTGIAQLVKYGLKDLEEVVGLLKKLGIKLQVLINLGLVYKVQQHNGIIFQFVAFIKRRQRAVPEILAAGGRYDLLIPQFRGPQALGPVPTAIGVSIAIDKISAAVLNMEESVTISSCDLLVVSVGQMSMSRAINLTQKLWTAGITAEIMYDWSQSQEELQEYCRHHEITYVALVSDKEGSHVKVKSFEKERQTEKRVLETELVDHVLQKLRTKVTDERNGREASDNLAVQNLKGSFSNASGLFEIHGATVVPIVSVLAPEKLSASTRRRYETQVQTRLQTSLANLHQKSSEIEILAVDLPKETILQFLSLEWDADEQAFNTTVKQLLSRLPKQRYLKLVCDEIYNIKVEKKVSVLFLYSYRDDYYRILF
- assayExplanation: GCN2 enzyme inhibition assay (Transcreener ADP2 fluorescence polarization)
- Assay type: biochemical
- conditionsUsed: compounds of Formula II; 280 μM ATP, 4 nM GCN2 kinase
pKi: −log10 of the molar value.

Entry under test: CS(=O)(=O)NC[C@@H]1CN(c2cc(-c3cnc4ccc(C(F)(F)F)nn34)ncn2)CCO1 . Its pKi was 6.00 to 8.00

The recorded pKi for entry C[C@@H]1CCCCN1c1cc(-c2cnc3ccc(C(F)F)nn23)ncn1 equals 6.00 to 8.00

Note to self: pKi recorded for CC1(O)CCN(c2cc(-c3cnc4ccc(C(F)F)nn34)ncn2)CC1CNS(C)(=O)=O (stereo not drawn) [II-240] was > 8.00

// pKi lookup, compound = NS(=O)(=O)N1CC2CCCN(c3cc(-c4cnc5ccc(C(F)F)nn45)ncn3)C2C1 (stereo not drawn) , result: 6.00 to 8.00

For CS(=O)(=O)NCC1CN(c2cc(-c3cnc4ccc(Cl)nn34)ccn2)CCO1 (stereo not drawn) the compound record lists pKi as 6.00 to 8.00

Here are 3 compounds. What values of pKi were reported for them?
1. CS(=N)(=O)C1CCCN(c2cc(-c3cnc4ccc(C(F)F)nn34)ncn2)C1 (stereo not drawn)
2. CC1CC(C)(O)C(CNS(C)(=O)=O)CN1c1cc(-c2cnc3ccc(C(F)F)nn23)ncn1 (stereo not drawn) [II-365]
3. CS(=N)(=O)c1cccc(-c2cc(-c3cnc4ccc(C(F)F)nn34)ncn2)c1 (stereo not drawn)

Resp:
1: 6.00 to 8.00; 2: 6.00 to 8.00; 3: 6.00 to 8.00

* * *

- studyTarget: GCN2 kinase (Homo sapiens, UniProt Q9P2K8)
- assayExplanation: GCN2 enzyme inhibition assay (Transcreener ADP2 fluorescence polarization)
- Type: biochemical
- conditionsUsed: compounds of Formula II; 280 μM ATP, 4 nM GCN2 kinase
pKi: −log10 of the molar value.
reportedEndpoint: pKi

Some compounds with recorded pKi:
The compound NS(=O)(=O)NCC1CCCN(c2cc(-c3cnc4ccc(C(F)F)nn34)ncn2)C1 (centres unmarked) [II-202] showed pKi equal to > 8.00

Quick note, pKi for O=C1NCCC12CCCN(c1cc(-c3cnc4ccc(C(F)F)nn34)ncn1)C2 (centres unmarked) landed at 6.00 to 8.00

// pKi value for CC1CC(N=S(C)(C)=O)CN(c2cc(-c3cnc4ccc(C(F)F)nn34)ccn2)C1 (centres unmarked) [II-691] : 6.00 to 8.00

response.value for OC[C@@H]1CN(c2cc(-c3cnc4ccc(C(F)F)nn34)ccn2)CCN1 (field: pKi) = 6.00 to 8.00

Per the records, this compound ( CS(=N)(=O)Cc1cccc(-c2cc(-c3cnc4ccc(C(F)F)nn34)ncn2)c1 (centres unmarked) ) has pKi equal to 6.00 to 8.00

Reported pKi for NS(=O)(=O)C1CCN(c2cc(-c3cnc4ccc(C(F)F)nn34)ncn2)C1 (centres unmarked) was 6.00 to 8.00

// for each compound below, give its pKi
1. CN1CCN(c2cc(-c3cnc4ccc(C(F)F)nn34)ncn2)C[C@H]1CNS(C)(=O)=O
2. CC1C(CO)N(C(C)(C)C)CCN1c1cc(-c2cnc3ccc(C(F)F)nn23)ncn1 (centres unmarked) [II-556]
3. CNc1cc(-c2cnc3ccc(C(F)F)nn23)cc(N2CC(C)C(F)(F)C(CNS(C)(=O)=O)C2)n1 (centres unmarked) [II-65]

Resp:
1. 6.00 to 8.00
2. 6.00 to 8.00
3. > 8.00

Give one value of pKi per listed compound.
1. C[C@H]1[C@@H](CNS(C)(=O)=O)OC(C)(C)CN1c1cc(-c2cnc3ccc(C(F)F)nn23)ncn1 (single isomer, unassigned)
2. CC1C(CNS(C)(=O)=O)C(F)(F)CCN1c1cc(-c2cnc3ccc(C(F)F)nn23)ncn1 (centres unmarked) [II-431]
3. NS(=O)(=O)NCC1CCN(c2cc(-c3cnc4ccc(C(F)F)nn34)ncn2)C1 (centres unmarked)
4. CC1CCC(CNS(C)(=O)=O)CN1c1cc(-c2cnc3ccc(C(F)F)nn23)ncn1 (centres unmarked) [II-245]
5. CN1CCN(c2cc(-c3cnc4ccc(C(F)F)nn34)ncn2)CC12CN(S(C)(=O)=O)C2
6. CC1CC(N=S(C)(C)=O)CN(c2cc(-c3cnc4ccc(C#N)nn34)ncn2)C1 (centres unmarked) [II-702]
7. CS(=O)(=O)NC[C@H]1CCCN(c2cc(-c3cnc4ccc(C(F)F)nn34)ncn2)C1

Resp:
1. > 8.00
2. > 8.00
3. 6.00 to 8.00
4. 6.00 to 8.00
5. 6.00 to 8.00
6. 6.00 to 8.00
7. > 8.00

Per the record, NS(=O)(=O)N1CC2(CCCN(c3cc(-c4cnc5ccc(C(F)F)nn45)ncn3)C2)C1 has pKi of 6.00 to 8.00
